System: THLE-2 (normal human cells)
Experiment summary: CCK-8 cytotoxicity on normal cells, THLE-2
Format: cell-based
Stated conditions: 20 μM, 48 h, CCK8, NA = no activity, read-out: Inhibitory Ratio (Mean% ± SD%) THLE-2
Reported property: inhibition at 20 µM (%)

>>> recorded_number("CC1(C)C2=CCC3C(CC[C@@]4(C)C3CC[C@@H]4C(=O)O)[C@@]2(C)Cc2nc3cc(Br)ccc3nc21 (some centres unmarked)")
12.5
>>> recorded_number("CC(O)C1CCC2C3CC=C4C(C)(C)c5nc(C(=O)NCCc6ccccc6)cnc5CC4(C)C3CCC12C (centres unmarked) [Compound 12n]")
19.3
>>> recorded_number("Cc1ccccc1NC(=O)c1cnc2c(n1)C(C)(C)C1=CCC3C(CCC4(C)C(C(C)O)CCC34)C1(C)C2 (centres unmarked) [Compound 12b]")
5.15
>>> recorded_number("COc1ccc2nc3c(nc2c1)C(C)(C)C1=CCC2C(CCC4(C)C(C(C)O)CCC24)C1(C)C3 (centres unmarked) [Compound 10l]")
22.2
>>> recorded_number("COc1ccccc1NC(=O)c1cnc2c(n1)C(C)(C)C1=CCC3C(CCC4(C)C(C(C)O)CCC34)C1(C)C2 (centres unmarked) [Compound 12k]")
4.71
>>> recorded_number("COc1ccc(NC(=O)c2cnc3c(n2)C(C)(C)C2=CCC4C(CCC5(C)C(C(C)O)CCC45)C2(C)C3)cc1 (centres unmarked) [Compound 12m]")
5.68
>>> recorded_number("CC(O)C1CCC2C3CC=C4C(C)(C)c5nc(C(=O)Nc6ccc(F)cc6)cnc5CC4(C)C3CCC12C (centres unmarked) [Compound 12g]")
17.6
>>> recorded_number("CC1(C)C2=CCC3C(CC[C@@]4(C)C3CC[C@@H]4C(=O)O)[C@@]2(C)Cc2nc3ccc(Br)cc3nc21 (some centres unmarked)")
2.39
>>> recorded_number("CC(O)C1CCC2C3CC=C4C(C)(C)c5nc(C(=O)Nc6ccccc6F)cnc5CC4(C)C3CCC12C (centres unmarked) [Compound 12e]")
14
>>> recorded_number("CC(O)C1CCC2C3CC=C4C(C)(C)c5nc6cc(Br)ccc6nc5CC4(C)C3CCC12C (centres unmarked) [Compound 10h]")
2.39
>>> recorded_number("O=c1[nH]cc(F)c(=O)[nH]1 [Compound 5-FU, 5-fluorouracil, reference compound]")
51.8
